Origin of the recorded values: ChEMBL document CHEMBL1201862

system: ACHN; test: NCI tumour cell line growth inhibition, 48 h
Activity calls are given as the source filed them. No stated cut-off is given here; in the data, active = GI50 up to about 1.1 µM and inactive = higher.
assay-readout: GI50

// below: answered compounds
1. COc1cc(/C=C\c2ccc(Cl)cc2)cc(OC)c1OC; 1.38 µM (inactive)
2. CCC(C)(C)c1ccc(Oc2cccc(C(=O)O)c2)cc1; 58.9 µM (inactive)

[ask] State its GI50 for this compound: CC(Nc1cc(Cl)cc(Cl)c1)c1ccncc1 (centres undefined)
[reply] 22.4 µM (inactive)

[ask] State its GI50 for this compound: CCN(CC)CCNC(=O)c1ccc(I)cc1
[reply] > 100 µM (inactive)

====

The compounds listed here are annotated with their GI50.
test system: A549; assay: NCI tumour cell line growth inhibition, 48 h
Calls of active or inactive are those of the source. Rule as the data show it: active = GI50 up to about 1.1 µM and inactive = higher.

// below: answered compounds
1. CN(C)Cc1cc(C(=O)/C=C/c2ccc(Br)cc2)cc(CN(C)C)c1O; 8.22 µM (inactive)
2. COc1ccc(C(=O)/C=C/c2ccc(OCC#N)cc2)cc1OC; 29.1 µM (inactive)
3. CCOC(=O)C(c1c[nH]c2ccccc12)(c1c[nH]c2ccccc12)c1c[nH]c2ccccc12; 30.7 µM (inactive)
4. CC1(O)C(C)(O)C2(C)O[Te]3(OC12C)OC1(C)C(C)(O)C(C)(O)C1(C)O3 (stereo not drawn); 6.67 µM (inactive)
5. COc1ccc2cc1Oc1ccc(cc1)CC1c3c(cc(OC)c4c3Oc3cc5c(cc3O4)CCNC5C2)CCN1C (stereo not drawn); 2.2 µM (inactive)

[ask] State its GI50 for this compound: COc1ccc(C2CC(c3ccc(NS(=O)(=O)c4cc([N+](=O)[O-])ccc4C)cc3)=NN2S(=O)(=O)c2cc([N+](=O)[O-])ccc2C)cc1 (stereo not drawn)
[reply] 34.5 µM (inactive)

[ask] State its GI50 for this compound: CCOC(=O)c1cnc2cc3cccccc3n2c1=O
[reply] > 100 µM (inactive)

[ask] State its GI50 for this compound: CCOP(=O)(OCC)C(F)(F)Cc1cnc(C)c2c1COC(C)(C)O2
[reply] > 10 µM (inactive)

[ask] State its GI50 for this compound: O=C(C/C(=N/O)c1cc(-c2ccccc2)no1)c1ccccc1
[reply] 58.6 µM (inactive)

[ask] State its GI50 for this compound: CC(=O)OCCCCN1C(=O)CSc2ccccc21
[reply] > 100 µM (inactive)

[ask] State its GI50 for this compound: COC(=O)CC(NC(=O)OCc1ccccc1)C(C(=O)OCc1ccccc1)C1(C)OCCO1 (stereo not drawn)
[reply] 32.4 µM (inactive)

[ask] State its GI50 for this compound: COC(=O)CCC(NC(=S)N/N=C/c1cccs1)C(=O)OC (stereo not drawn)
[reply] > 100 µM (inactive)

[ask] State its GI50 for this compound: CC(C)SC(=S)Sc1c(Cl)c(Cl)nc(Cl)c1Cl
[reply] 16.9 µM (inactive)

[ask] State its GI50 for this compound: Cc1cc2nc(N3C(=O)/C(=C/c4ccc(Cl)cc4)N=C3c3ccccc3)sc2cc1C
[reply] 30 µM (inactive)

[ask] State its GI50 for this compound: CCN(CC)c1ccc2cc(C(=O)Nc3cccc4ccccc34)c(=N)oc2c1
[reply] 75.9 µM (inactive)

[ask] State its GI50 for this compound: COc1cc(C(O)C(=O)c2cnc3cc([N+](=O)[O-])ccc3n2)ccc1O (stereo not drawn)
[reply] > 100 µM (inactive)

[ask] State its GI50 for this compound: Cn1ccnc1CCc1c(Cl)cccc1Cl
[reply] > 100 µM (inactive)

[ask] State its GI50 for this compound: CCCCCCN(N)C(=O)CC#N
[reply] > 100 µM (inactive)

[ask] State its GI50 for this compound: O=[N+]([O-])c1cc2ccc1OCc1cccc(n1)COc1ccc(cc1[N+](=O)[O-])/C=N\CCCCCCCC/N=C\2
[reply] > 100 µM (inactive)

[ask] State its GI50 for this compound: CC(C)(C)[C@H]1CC[C@@](O)(c2ccccc2)CC1.CC(C)(C)[C@H]1CC[C@](O)(c2ccccc2)CC1
[reply] 26 µM (inactive)

====

test system: A549; assay: NCI tumour cell line growth inhibition, 48 h
Activity calls are given as the source filed them. No stated cut-off is given here; in the data, active = GI50 up to about 1.1 µM and inactive = higher.
assay-readout: GI50

// below: answered compounds
1. COC1C(OC(N)=O)C(O)C(Oc2ccc3c(O)c(NC(=O)c4ccc(O)c(CC=C(C)C)c4)c(=O)oc3c2C)OC1(C)C (stereo not given); > 100 µM (inactive)
2. COc1cc(OC)c(C2(c3c(OC(C)C)c(=O)c3=O)SCCCS2)cc1OC; > 100 µM (inactive)
3. O=C1OC[C@@H]2Cc3cc4c(cc3[C@H](c3ccc5c(c3)OCO5)[C@@H]12)OCO4; > 25 µM (inactive)
4. CCC(CCCN)Nc1cc(OC)cc2cccnc12 (stereo not given); > 100 µM (inactive)
5. COc1ccc(N2C(=O)C3c4[nH]c5cccc(C)c5c4C4CCC(C(C)(C)C)CC4C3C2=O)cc1 (stereo not given); > 10 µM (inactive)
6. Cc1c(Cl)c2ccccc2n1S(=O)(=O)c1ccccc1; 41.3 µM (inactive)
7. COc1cc(C2=C(C)[C@@H]3CN(CC=C3c3ccc(Cl)cc3)C2)c(S(=O)(=O)O)cc1OC; > 100 µM (inactive)
8. COC1=CC(=O)c2c(CCNC(=O)OCc3ccccc3)n[nH]c2C1=O; 19.6 µM (inactive)

[ask] State its GI50 for this compound: S=P1(Sc2ccccc2)Oc2ccc3ccccc3c2-c2c(ccc3ccccc23)O1
[reply] > 100 µM (inactive)

[ask] State its GI50 for this compound: Nc1ccc(C2SCC(=O)N2NS(=O)(=O)c2cccc(C(=O)O)c2)cc1 (stereo not given)
[reply] > 100 µM (inactive)

====

tested on: SNB-75; test: NCI tumour cell line growth inhibition, 48 h
Active and inactive are the calls of the source. Rule as the data show it: active = GI50 up to about 1.1 µM and inactive = higher.
assay-readout: GI50

// below: answered compounds
1. O=c1c(-c2ccccc2)nnc2n(Cc3ccccc3)c3ccccc3n12; > 100 µM (inactive)
2. CN(/N=C/c1ccccn1)C1=NCCCCN1; > 100 µM (inactive)
3. Cc1cc2c(cc1C)[n+]([O-])c(NCCCN(C)C)c(C#N)[n+]2[O-]; 85.7 µM (inactive)
4. c1ccc(C(OCCN2CC3CCC(C2)N3)c2ccccc2)cc1; 50.1 µM (inactive)
5. OCCn1cnc2c(SCc3ccccc3)ncnc21; > 100 µM (inactive)

[ask] State its GI50 for this compound: O=[N+]([O-])c1cccc2nnccc12
[reply] 48.3 µM (inactive)

[ask] State its GI50 for this compound: O=c1[nH]c2ccc([N+](=O)[O-])c(Cl)c2c2ccccc12
[reply] 9.04 µM (inactive)

[ask] State its GI50 for this compound: NC(=O)c1cc2ccc(O)cc2o/c1=N/c1ccccc1
[reply] 13.5 µM (inactive)

[ask] State its GI50 for this compound: Cn1c(=O)c2nc(CCCc3ccc([N+](=O)[O-])cc3)[nH]c2n(C)c1=O
[reply] > 100 µM (inactive)

[ask] State its GI50 for this compound: Cc1cc(C#N)c(Nc2ccccc2[N+](=O)[O-])s1
[reply] 15.4 µM (inactive)

[ask] State its GI50 for this compound: CC12CCC3(OCCO3)C(OC(=O)c3ccccc3)=C1CCC21OCCO1 (configuration not stated)
[reply] > 100 µM (inactive)

[ask] State its GI50 for this compound: O=C1CCC2(CC1)SCCCS2
[reply] 61.1 µM (inactive)

[ask] State its GI50 for this compound: S=C(Nc1ccccc1)Nc1[nH]c(=S)sc1-c1nc2ccccc2[nH]1
[reply] 38.5 µM (inactive)

[ask] State its GI50 for this compound: Cc1ncc([N+](=O)[O-])n1CC(O)Cn1ccnc1[N+](=O)[O-] (configuration not stated)
[reply] > 100 µM (inactive)

[ask] State its GI50 for this compound: C[N+](C)(C)CC(CC(=O)[O-])C1CC1 (configuration not stated)
[reply] > 100 µM (inactive)

[ask] State its GI50 for this compound: Cc1ncc(CCl)c(CCl)c1O
[reply] > 100 µM (inactive)

====

tested on: SF-295; test: NCI tumour cell line growth inhibition, 48 h
The source made the active and inactive calls. Cut-off read from the data, not from the text of the source: active = GI50 up to about 1.1 µM and inactive = higher.
assay-readout: GI50

// below: answered compounds
1) O=[N+]([O-])c1cccc2nnccc12; 42.7 µM (inactive)
2) CC(C)(C)NNc1c([N+](=O)[O-])cnn(-c2ccccc2)c1=O; 6.28 µM (inactive)
3) O=C1/C(=C/c2ccccc2)CNC/C1=C\c1ccccc1; 2.07 µM (inactive)
4) CC(C)(C)[Si](C)(C)OCC1OC(n2cc(I)c(N)nc2=O)C(O[Si](C)(C)C(C)(C)C)C1O[Si](C)(C)C(C)(C)C (stereo unspecified); 3.16 µM (inactive)
5) CN(C)Cc1cc(C(=O)/C=C/c2ccc(Br)cc2)cc(CN(C)C)c1O; 5.58 µM (inactive)

[ask] State its GI50 for this compound: CCOP(=O)(OCC)C(C#N)Cc1ccco1 (stereo unspecified)
[reply] > 10 µM (inactive)

[ask] State its GI50 for this compound: O=C1N[C@H](Cc2c[nH]cn2)C(=O)N2CCC[C@@H]12
[reply] > 100 µM (inactive)

[ask] State its GI50 for this compound: Oc1ccccc1/C=C/c1csnn1
[reply] > 100 µM (inactive)

[ask] State its GI50 for this compound: O=C1Nc2cc(F)ccc2C1=O
[reply] > 100 µM (inactive)

[ask] State its GI50 for this compound: O=C(CC(=O)N1N=C(N(c2ccccc2)c2ccccc2)CC1c1ccccc1)Nc1ccc(Cl)cc1 (stereo unspecified)
[reply] > 100 µM (inactive)

[ask] State its GI50 for this compound: Cc1cnc2c(c1)C(=O)N(c1ccc(Br)cc1)S2(=O)=O
[reply] > 100 µM (inactive)
